The reported measurements were obtained from ChEMBL document CHEMBL1137266.

Biological target: Melanin-concentrating hormone receptor 1 (Homo sapiens)
Sequence (Q99705 whole entry): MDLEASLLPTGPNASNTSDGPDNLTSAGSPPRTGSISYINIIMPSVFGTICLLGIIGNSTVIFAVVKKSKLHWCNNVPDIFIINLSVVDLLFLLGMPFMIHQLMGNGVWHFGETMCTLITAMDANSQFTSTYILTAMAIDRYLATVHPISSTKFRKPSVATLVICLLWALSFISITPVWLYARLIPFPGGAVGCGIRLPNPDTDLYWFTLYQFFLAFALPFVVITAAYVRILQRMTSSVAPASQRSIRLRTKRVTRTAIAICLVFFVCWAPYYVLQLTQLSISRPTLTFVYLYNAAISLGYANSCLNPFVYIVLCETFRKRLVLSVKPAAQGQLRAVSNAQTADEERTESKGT
Assay: Stimulation of IP3-coupled mobilization of calcium in HEK293 cells expressing MCH-R1
Format: functional, cell-based
pEC50: −log10 of the molar value.
QUANTITY MEASURED: pEC50

Previously resolved entries follow.
- MOLECULE: "CCCc1cc(N)c2cc(NC(=O)/C=C/c3ccc(CC)cc3)ccc2n1"
  TARGET DESC: "Melanin-concentrating hormone receptor 1 (Homo sapiens)"
  QUANTITATIVE RESULT: 6.80
- MOLECULE: "CCCc1cc(N(C)C)c2cc(NC(=O)/C=C/c3ccc(C(F)(F)F)cc3)ccc2n1"
  TARGET DESC: "Melanin-concentrating hormone receptor 1 (Homo sapiens)"
  QUANTITATIVE RESULT: 6.52
- MOLECULE: "CCCc1cc(N)c2cc(NC(=O)/C=C/c3ccc(OC(C)=O)cc3)ccc2n1"
  TARGET DESC: "Melanin-concentrating hormone receptor 1 (Homo sapiens)"
  QUANTITATIVE RESULT: 6.20
- MOLECULE: "CCCc1cc(N)c2cc(NC(=O)/C=C/c3ccc(F)cc3)ccc2n1"
  TARGET DESC: "Melanin-concentrating hormone receptor 1 (Homo sapiens)"
  QUANTITATIVE RESULT: 6.70
- MOLECULE: "CCCc1cc(N)c2cc(NC(=O)C3CCC(c4ccc(Cl)cc4)CC3)ccc2n1 (stereo not given)"
  TARGET DESC: "Melanin-concentrating hormone receptor 1 (Homo sapiens)"
  QUANTITATIVE RESULT: 6.43
- MOLECULE: "CCCc1cc(N)c2cc(NCCCc3ccc(C(F)(F)F)cc3)ccc2n1"
  TARGET DESC: "Melanin-concentrating hormone receptor 1 (Homo sapiens)"
  QUANTITATIVE RESULT: 6.00
- MOLECULE: "CCCc1cc(N)c2cc(NC(=O)/C=C/c3ccc([N+](=O)[O-])cc3)ccc2n1"
  TARGET DESC: "Melanin-concentrating hormone receptor 1 (Homo sapiens)"
  QUANTITATIVE RESULT: 6.51
- MOLECULE: "CCCCc1ccc(/C=C/C(=O)Nc2ccc3nc(CCC)cc(N)c3c2)cc1"
  TARGET DESC: "Melanin-concentrating hormone receptor 1 (Homo sapiens)"
  QUANTITATIVE RESULT: 6.13
- MOLECULE: "CCCc1cc(N)c2cc(NC(=O)/C=C/c3ccc(C(F)(F)F)cc3)ccc2n1 (stereo in doubt; form 1)"
  TARGET DESC: "Melanin-concentrating hormone receptor 1 (Homo sapiens)"
  QUANTITATIVE RESULT: 7.21
- MOLECULE: "Nc1cc(-c2ccccc2)nc2ccc(NC(=O)/C=C/c3ccc(Cl)cc3)cc12"
  TARGET DESC: "Melanin-concentrating hormone receptor 1 (Homo sapiens)"
  QUANTITATIVE RESULT: 5.18

(P) Nc1cc(C2CCCC2)nc2ccc(NC(=O)/C=C/c3ccc(C(F)(F)F)cc3)cc12
(Q) CCCCc1cc(N)c2cc(NC(=O)/C=C/c3ccc(C(F)(F)F)cc3)ccc2n1
Asked: Smaller pEC50 value, P vs Q ? Indicate your choice by writing its label.
Given back: Q

(P) CCCc1cc(N)c2cc(NC(=O)/C=C/c3ccc(C(F)(F)F)cc3)ccc2n1 (stereo in doubt; form 3)
(Q) CCCc1cc(N)c2cc(NC(=O)NCc3ccc(C(F)(F)F)cc3)ccc2n1
(R) CCCc1cc(N)c2cc(NC(=O)/C=C/c3ccc(Cl)c(Cl)c3)ccc2n1
(S) CC(C)(C)c1cc(N)c2cc(NC(=O)/C=C/c3ccc(C(F)(F)F)cc3)ccc2n1
Asked: Sort these molecules on pEC50 so the largest reading comes first. Output the labels ranked as instructed.
Given back: S, P, Q, R

(1) CCC(C)c1cc(N)c2cc(NC(=O)/C=C/c3ccc(C(F)(F)F)cc3)ccc2n1 (stereo not given)
(2) CCCCCc1cc(N)c2cc(NC(=O)/C=C/c3ccc(C(F)(F)F)cc3)ccc2n1
(3) CCCc1cc(N)c2cc(NC(=O)/C=C/c3ccc(C(C)(C)C)cc3)ccc2n1
(4) CCCc1cc(N)c2cc(NC(=O)/C=C/c3ccc(C(C)C)cc3)ccc2n1
Asked: Rank order required: pEC50, descending. Please list each label once, in the requested order.
Given back: 1, 2, 4, 3
